For each entry below, report its AC50 value.
- study.target: 5-hydroxytryptamine receptor 1A (Homo sapiens); note: assay procedure not described here
- Sequence (P08908 whole entry): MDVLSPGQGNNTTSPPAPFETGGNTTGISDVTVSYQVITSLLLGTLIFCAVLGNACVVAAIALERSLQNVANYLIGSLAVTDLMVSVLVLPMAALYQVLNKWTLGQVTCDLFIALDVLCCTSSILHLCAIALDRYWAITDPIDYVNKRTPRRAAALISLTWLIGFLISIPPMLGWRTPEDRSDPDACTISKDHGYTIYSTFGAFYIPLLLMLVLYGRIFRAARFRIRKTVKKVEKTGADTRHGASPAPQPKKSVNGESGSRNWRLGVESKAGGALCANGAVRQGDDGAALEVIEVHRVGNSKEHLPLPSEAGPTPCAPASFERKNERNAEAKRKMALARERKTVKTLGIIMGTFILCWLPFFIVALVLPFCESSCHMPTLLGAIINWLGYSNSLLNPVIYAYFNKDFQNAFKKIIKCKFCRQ

Query string: Can you look up the measured AC50 of COc1ccccc1N1CCN(CC(O)COc2cccc3ccccc23)CC1 (stereo not drawn) [NAFTOPIDIL] for me?
Result string: 0.0086 µM

Query string: Record request: AC50 value, item CCN(CC)CCNc1ccc(CO)c2sc3ccccc3c(=O)c12 [HYCANTHONE]
Result string: 7.25 µM

Query string: Which AC50 value belongs to COC1=C(OC)C(=O)C(C/C=C(\C)CC/C=C(\C)CC/C=C(\C)CC/C=C(\C)CC/C=C(\C)CC/C=C(\C)CC/C=C(\C)CC/C=C(\C)CC/C=C(\C)CCC=C(C)C)=C(C)C1=O [UBIDECARENONE] ?
Result string: > 30 µM

Query string: I'd like to know its AC50. The compound in question is O=C(Cc1ccc(-c2ccccc2)cc1)Nc1ccccn1 [DIFENPIRAMIDE]
Result string: > 30 µM

Query string: For the compound CC(C)(C)C(=O)C(Oc1ccc(Cl)cc1)n1ccnc1 (stereo not drawn) [CLIMBAZOLE] , what AC50 is on record?
Result string: > 30 µM

Query string: # input compound: CC(C)COC(=O)OCN1C(=O)CN(CCN2CC(=O)N(COC(=O)OCC(C)C)C(=O)C2)CC1=O [SOBUZOXANE] ; wanted: its AC50
Result string: > 30 µM

Query string: Form field: reported AC50 of CC(C)(S)[C@@H](N)C(=O)O [PENICILLAMINE]
Result string: > 30 µM

Query string: Return reported AC50; argument: COc1cc([C@@H]2c3cc4c(cc3[C@H](O)[C@H]3COC(=O)[C@H]23)OCO4)cc(OC)c1OC [PODOFILOX]
Result string: > 30 µM

Query string: For CCC1=C(C)CN(C(=O)NCCc2ccc(S(=O)(=O)NC(=O)N[C@H]3CC[C@H](C)CC3)cc2)C1=O [GLIMEPIRIDE] , what is its reported AC50?
Result string: > 30 µM

Query string: Any idea what AC50 was measured for Cc1cc(NS(=O)(=O)c2ccc(N)cc2)nc(C)n1 [SULFISOMIDINE] ?
Result string: > 30 µM

Query string: Look up AC50 for this compound: Cc1cn([C@H]2C=C[C@@H](CO)O2)c(=O)[nH]c1=O [STAVUDINE]
Result string: > 30 µM

Query string: Quick one: AC50 for OC(c1ccccc1)(c1ccccc1)C12CC[N+](CCOCc3ccccc3)(CC1)CC2 ?
Result string: > 30 µM

Query string: For the compound shown here, OB1OCc2cc(F)ccc21 [TAVABOROLE] , give the reported AC50.
Result string: > 30 µM

Query string: May I ask what AC50 has been recorded for CCOC(=O)[C@H](CCc1ccccc1)N[C@@H](C)C(=O)N1[C@H](C(=O)O)C[C@H]2CCCC[C@@H]21 [TRANDOLAPRIL] ?
Result string: > 30 µM

Query string: Give the measured AC50 of N=C1CCCN1Cc1[nH]c(=O)[nH]c(=O)c1Cl .
Result string: > 30 µM

Query string: I would be grateful if you could share the reported AC50 for CC(=O)c1ccc2c(c1)N(CCCN(C)C)c1ccccc1S2 [ACEPROMAZINE] .
Result string: 0.248 µM

Query string: # get_value(readout='AC50', item= NC1CCN(c2c(F)cc3c(=O)c(C(=O)O)cn(C4CC4)c3c2Cl)C1 (stereo not drawn) [CLINAFLOXACIN] )
Result string: > 30 µM

Query string: Fill in: AC50 of OCCN1C[C@H](O)[C@@H](O)[C@H](O)[C@H]1CO [MIGLITOL] is ___
Result string: > 30 µM
